Ref: paper PMC3845967

Record type: pKd measurement. Applies to: human Hsc70 (Homo sapiens, UniProt P11142)
pKd: −log10 of the molar value.
MEASURE_NAME: pKd

molecular_string=CCn1c(=O)/c(=C2\Sc3cccc(F)c3N2C)s/c1=C\c1cccc[n+]1CCCCCCNC(=O)CCCC[C@@H]1SC[C@@H]2NC(=O)N[C@@H]21 measure_name=pKd meas_value=4.96
molecular_string=CCn1c(=O)/c(=C2\Sc3cccc(Cl)c3N2C)s/c1=C\c1cccc[n+]1CCCCCCNC(=O)CCCC[C@@H]1SC[C@@H]2NC(=O)N[C@@H]21 measure_name=pKd meas_value=5.11
molecular_string=CCn1c(=O)/c(=C2\Sc3cccc(F)c3N2C)s/c1=C\c1scc[n+]1Cc1ccc(CNC(=O)CCCC[C@@H]2SC[C@@H]3NC(=O)N[C@@H]32)cc1 measure_name=pKd meas_value=5.62
